assay: Non-nucleoside inhibition of NS5B polymerase in HCV genotype 1a by Taqman probe based RT-PCR analysis
Measured Metric: EC50 (nM)
Numbers only, in nM.

Below: 8 compounds and their reported EC50.
Compound | EC50, nM
CNC(=O)c1c(-c2ccc(F)cc2)oc2cc(N(C)S(C)(=O)=O)c(-c3ccc4nc(C)n(Cc5ccc(F)cc5F)c(=O)c4c3)cc12 | 0.5
CNC(=O)c1c(-c2ccc(F)cc2)oc2cc(N(C)S(C)(=O)=O)c(-c3ccc4nnn([C@@H](COC)c5ccc(F)cc5)c(=O)c4c3)cc12 | 4.9
CNC(=O)c1c(-c2ccc(F)cc2)oc2cc(N(C)S(C)(=O)=O)c(-c3ccc4nc(COC)n(Cc5ccc(F)cc5)c(=O)c4c3)cc12 | 2.1
CNC(=O)c1c(-c2ccc(F)cc2)oc2cc(N(C)S(C)(=O)=O)c(-c3ccc4nnn(C(C)c5ccc(F)cc5)c(=O)c4c3)cc12 (stereo unspecified) | 2.8
CNC(=O)c1c(-c2ccc(F)cc2)oc2cc(N(C)S(C)(=O)=O)c(-c3ccc4nnn([C@H](COC)c5ccc(F)cc5)c(=O)c4c3)cc12 | 1.2
CNC(=O)c1c(-c2ccc(F)cc2)oc2cc(N(C)S(C)(=O)=O)c(-c3ccc4c(n3)C(=O)N(Cc3ccc(F)cc3)CO4)cc12 | 1.6
CNC(=O)c1c(-c2ccc(F)cc2)oc2cc(N(C)S(C)(=O)=O)c(-c3cc(C)c4nnn(Cc5ccc(F)cc5)c(=O)c4c3)cc12 | 1.8
CNC(=O)c1c(-c2ccc(F)cc2)oc2cc(N(C)S(C)(=O)=O)c(-c3cc4c(=O)n(Cc5ccc(F)cc5)nnc4cc3F)cc12 | 0.7

I need EC50 for every entry listed below, if you could help.
1. CNC(=O)c1c(-c2ccc(F)cc2)oc2cc(N(C)S(C)(=O)=O)c(-c3cc4c(=O)n(Cc5ccc(F)cc5)nnc4cc3Cl)cc12
2. CNC(=O)c1c(-c2ccc(F)cc2)oc2cc(N(C)S(C)(=O)=O)c(-c3ccc4nnn(Cc5ccccc5)c(=O)c4c3)cc12

A.
1. 3
2. 2.3

Data origin: BindingDB's records for doi:10.1016/j.bmcl.2020.127004
